This listing pairs molecules with measured Kd.
- methodDescription: SPR (Biacore) Protein A mAb capture, Compound A injected
- measurementConditions: 37° C., binding to Compound A, apparent, for rank ordering only

molecule	Kd
26D5-296-C08-mAb: human IgG1f/kappa mAb; VH SEQ ID NO: 66, VL SEQ ID NO: 95 (antibody, V domains shown) VH: EVQLVESGGGLIQPGGSLRLSCAASGFQVSSNAMSWVRQAPGKGLEWVSFIYSGGRTYYADSVKGRFTISRDNSKNTLYLQMNSLRAEDTAVYYCARGGFGGGDYWGQGTLVTVSS VL: DIQMTQSPSSVSASVGDRVTITCRASQYIESNLAWYQQKPGKAPKLLIYAASSLQSGVPSRFSGSGSGTDFTLTISSLQPEDFATYYCQQANSFPLTFGGGTKVEIK	0.00031 s⁻¹
26D5-75602-348-F04-mAb: human IgG1f/kappa mAb; VH SEQ ID NO: 58, VL SEQ ID NO: 88 (antibody, V domains shown) VH: EVQLVESGGGLIQPGGSLRLSCAASGFTVSSNQFSWVRQAPGKGLEWVSYFYPGGRTYYADSVKGRFTISRDNSKNTLYLQMNSLRAEDTAVYYCAKAGFGGGDYWGQGTLVTVSS VL: DIQMTQSPSSVSASVGDRVTITCRASQGISSNLAWYQQKPGKAPKLLIYAASSLQSGVPSRFSGSGSGTDFTLTISSLQPEDFATYYCQQANSFPLTFGGGTKVEIK	<5e-05 s⁻¹
25D5-75592-0348-A04-mAb: human IgG1f/kappa mAb; VH SEQ ID NO: 61, VL SEQ ID NO: 89 (antibody, V domains shown) VH: EVQLVESGGGLIQPGGSLRLSCAASGFTVSSNAIAWVRQAPGKGLEWVAYIYPGGRTYYADSVKGRFTISRDNSKNTLYLQMNSLRAEDTAVYYCVTAGFGGGDYWGQGTLVTVSS VL: DIQMTQSPSSVSASVGDRVTITCRASQGISSNNQWYQQKPGKAPKLLIYYASSLQSGVPSRFSGSGSGTDFTLTISSLQPEDFATYYCQQGNEFPLTFGGGTKVEIK	0.00011 s⁻¹
26D5-75229-343-A10-mAb: human IgG1f/kappa mAb; VH SEQ ID NO: 52, VL SEQ ID NO: 84 (antibody, V domains shown) VH: EVQLVESGGGLIQPGGSLRLSCAASGFTVSSNAMSWVRQAPGKGLEWVSYIYPGGRTYYADSVKGRFTISRDNSKNTLYLQMNSLRAEDTAVYYCARAGFGGPDYWGQGTLVTVSS VL: DIQMTQSPSSVSASVGDRVTITCRASQGISSNLAWYQQKPGKAPKLLIYAASSLQSGVPSRFSGSGSGTDFTLTISSLQPEDFATYYCQQANQFPLTFGGGTKVEIK	<5e-05 s⁻¹
26D5-296-F03-mAb: human IgG1f/kappa mAb; VH SEQ ID NO: 70, VL SEQ ID NO: 88 (antibody, V domains shown) VH: EVQLVESGGGLIQPGGSLRLSCAASGFQVSSNYMSWVRQAPGKGLEWVSFIYSGGRTYYADSVKGRFTISRDNSKNTLYLQMNSLRAEDTAVYYCARAGFGGGDYWGQGTLVTVSS VL: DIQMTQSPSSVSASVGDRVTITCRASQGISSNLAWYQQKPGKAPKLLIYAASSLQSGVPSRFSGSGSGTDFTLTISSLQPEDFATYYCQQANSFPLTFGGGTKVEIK	0.00039 s⁻¹
26D5-296-H03-mAb: human IgG1f/kappa mAb; VH SEQ ID NO: 63, VL SEQ ID NO: 88 (antibody, V domains shown) VH: EVQLVESGGGLIQPGGSLRLSCAASGFTVSSNAMSWVRQAPGKGLEWVSFIYPGGRTYYADSVKGRFTISRDNSKNTLYLQMNSLRAEDTAVYYCARGGFGGGDYWGQGTLVTVSS VL: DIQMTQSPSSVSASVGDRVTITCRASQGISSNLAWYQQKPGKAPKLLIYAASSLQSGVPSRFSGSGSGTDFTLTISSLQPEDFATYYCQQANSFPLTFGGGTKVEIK	0.00018 s⁻¹
26D5-296-D08-mAb: human IgG1f/kappa mAb; VH SEQ ID NO: 69, VL SEQ ID NO: 95 (antibody, V domains shown) VH: EVQLVESGGGLIQPGGSLRLSCAASGFTVSSNYMSWVRQAPGKGLEWVSFIYPGGRTYYADSVKGRFTISRDNSKNTLYLQMNSLRAEDTAVYYCARGGFGGGDYWGQGTLVTVSS VL: DIQMTQSPSSVSASVGDRVTITCRASQYIESNLAWYQQKPGKAPKLLIYAASSLQSGVPSRFSGSGSGTDFTLTISSLQPEDFATYYCQQANSFPLTFGGGTKVEIK	0.00045 s⁻¹
26D5-296-G08-mAb: human IgG1f/kappa mAb; VH SEQ ID NO: 70, VL SEQ ID NO: 95 (antibody, V domains shown) VH: EVQLVESGGGLIQPGGSLRLSCAASGFQVSSNYMSWVRQAPGKGLEWVSFIYSGGRTYYADSVKGRFTISRDNSKNTLYLQMNSLRAEDTAVYYCARAGFGGGDYWGQGTLVTVSS VL: DIQMTQSPSSVSASVGDRVTITCRASQYIESNLAWYQQKPGKAPKLLIYAASSLQSGVPSRFSGSGSGTDFTLTISSLQPEDFATYYCQQANSFPLTFGGGTKVEIK	0.00039 s⁻¹

Origin of measurements: patent US12065505B2
